Below: a set of entries, each annotated with reported change of melting temperature, mutant - wild type (higher = more stable).
B1: Ribonuclease, P00648 (parent)
chain: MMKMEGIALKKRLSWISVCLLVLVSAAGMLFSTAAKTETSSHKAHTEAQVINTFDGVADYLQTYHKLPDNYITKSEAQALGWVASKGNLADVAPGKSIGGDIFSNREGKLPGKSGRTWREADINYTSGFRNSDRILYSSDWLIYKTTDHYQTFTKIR

Variants of: B1
Details: Bacillus amyloliquefaciens; pH 4.4; Thermal; DSC; Sodium acetate/Acetic acid 6.08 mM/13.92 mM/; reversible: yes (>95%); structure 1BNI; whole UniProt chain shown
test-readout: change of melting temperature, mutant - wild type (higher = more stable) (°C)

[[record]]
sequence_change = "D55A"
meas_value = -1.91

[[record]]
sequence_change = "R116M"
meas_value = -5.77

[[record]]
sequence_change = "R130Q"
meas_value = -3.29

[[record]]
sequence_change = "D69M"
meas_value = -1.57

[[record]]
sequence_change = "I135V"
meas_value = -3.37

[[record]]
sequence_change = "D59G"
meas_value = -1.95

[[record]]
sequence_change = "I98V"
meas_value = -4.53

[[record]]
sequence_change = "T73G"
meas_value = -4.06

[[record]]
sequence_change = "T63R"
meas_value = 1.33

[[record]]
sequence_change = "S139A"
meas_value = -7.13

